tested on: ACVRL1; conditions: concentration: 1 μM,replicates: in singlicate; n = 1;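 also: KINOMEscan kinase panel screen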
Test readout: %Inh (%)
Write down the numeric answer in % and omit the unit.

// query %Inh value for entry CCN(CC)CCOc1ccc(Nc2ncc3cc(-c4c(Cl)cccc4Cl)c(=O)n(C)c3n2)cc1
87

// query %Inh value for entry COc1ccc(C[C@@H](CN)NC(=O)c2cc(Br)c(-c3ccnc4[nH]ccc34)s2)cc1.Cl.Cl
0

// query %Inh value for entry Cl.Cl.Nc1nc(-c2ccc3c(N)n[nH]c3c2)cc(N2CCCC(NC(=O)c3ccccc3)C2)n1 (stereo not drawn)
0

// query %Inh value for entry Cc1cc(C(=O)Nc2ccc(Oc3ccc4nc(NC(=O)C5CC5)cn4n3)cc2)nn1-c1ccccc1
0

// query %Inh value for entry C[C@@H](Oc1cc(-c2cnn(C3CCNCC3)c2)cnc1N)c1c(Cl)ccc(F)c1Cl
11

// query %Inh value for entry Cl.Cl.NC[C@H](Cc1ccc(C(F)(F)F)cc1)NC(=O)c1cc(Br)c(-c2ccnc3[nH]ccc23)s1
0

// query %Inh value for entry C[C@@H]1CCN(C(=O)CC#N)C[C@@H]1N(C)c1ncnc2[nH]ccc12
0

// query %Inh value for entry Cc1n[nH]c2ccc(-c3cc(OC[C@@H](N)Cc4ccccc4)cnc3-c3ccoc3)cc12.O=C(O)C(F)(F)F.O=C(O)C(F)(F)F
0

// query %Inh value for entry Cc1ccc(-n2nc(C(C)(C)C)cc2NC(=O)Nc2ccc(OCCN3CCOCC3)c3ccccc23)cc1
0

// query %Inh value for entry Cl.Cl.NC[C@H](CC1CCCCC1)NC(=O)c1cc(Br)c(-c2ccnc3[nH]ccc23)s1
0

// query %Inh value for entry CN(C)CC(O)COc1ccc(Nc2nccc(-c3cnn4nc(N5CCOCC5)ccc34)n2)cc1 (stereo not drawn)
0

// query %Inh value for entry Cl.Oc1cc(-c2nc(-c3ccccc3)[nH]c2-c2ccncc2)ccc1Cl
0

====

system: PRKR; construct: gene EIF2AK2; settings: concentration: 1 μM,replicates: in singlicate; n = 1
Test readout: %Inh
Note: a bare number is incomplete; add the unit.

// query %Inh value for entry Cl.Cl.NC[C@H](CC1CCCCC1)NC(=O)c1cc(Br)c(-c2ccnc3[nH]ccc23)s1 [GSK1581427]
0%

// query %Inh value for entry CNC(=O)c1ccccc1Sc1ccc2c(/C=C/c3ccccn3)n[nH]c2c1
0%

// query %Inh value for entry C[C@H]1Oc2cc(cnc2N)-c2c(nn(C)c2C#N)CN(C)C(=O)c2ccc(F)cc21
0%

// query %Inh value for entry O=C(NCCCN1CCOC1=O)c1cnc(NCc2cc(Cl)ccc2Cl)nc1NC1CCCC1
4%

// query %Inh value for entry C[C@@H](Oc1cc(-c2cnn(C3CCNCC3)c2)cnc1N)c1c(Cl)ccc(F)c1Cl
26%

// query %Inh value for entry Nc1nc(Nc2ccccc2)cc(-c2ccc3c(N)n[nH]c3c2)n1 [GSK2225749]
3%

// query %Inh value for entry CCN(CC)CCCCNc1ncc2cc(-c3c(Cl)cccc3Cl)c(NC(=O)NC(C)(C)C)nc2n1
0%

// query %Inh value for entry C=CC(=O)Nc1cc2c(Nc3ccc(F)c(Cl)c3)ncnc2cc1OCCCN1CCOCC1 [GW781483]
0%

// query %Inh value for entry C[C@@H]1CCN(C(=O)CC#N)C[C@@H]1N(C)c1ncnc2[nH]ccc12
0%

// query %Inh value for entry CCn1c(-c2nonc2N)nc2c(C#CC(C)(C)O)nc(OCCN)cc21.Cl.Cl [GSK902056]
0%

// query %Inh value for entry Cl.Cl.NC[C@H](Cc1ccc(C(F)(F)F)cc1)NC(=O)c1cc(Br)c(-c2ccnc3[nH]ccc23)s1 [GSK1487252]
0%

// query %Inh value for entry CN(C)CCOc1ccc(-c2cc(-c3c[nH]nc3-c3ccccn3)ccn2)cc1 [GW835314]
0%
